herbicidal effect POAAN reference
Tested on: Poa annua
measurementNotes: Herbicidal pre-emergence action, POAAN
Type: in vivo
appliedConditions: 1280 g/ha, visual grading after ca. 3 weeks vs untreated controls
Use % as the unit, but write only the number.

Worked examples follow.
structureassmiles=O=C(Nc1ncns1)c1c(C(F)(F)F)ccnc1Cl unitssymbol=% testresult=100
structureassmiles=O=C(Nc1ncns1)c1cnccc1C(F)(F)F unitssymbol=% testresult=100
structureassmiles=O=C(Nc1ncns1)c1c(C(F)(F)F)ccnc1F unitssymbol=% testresult=100
structureassmiles=COc1nccc(C(F)(F)F)c1C(=O)Nc1ncns1 unitssymbol=% testresult=100

Hello, I am looking for reported herbicidal effect POAAN with Poa annua for `O=C(Nc1nc(Cl)ns1)c1c(C(F)(F)F)ccnc1F` . Could you help?
90

Hello, I am looking for reported herbicidal effect POAAN with Poa annua for `O=C(Nc1ncns1)c1c(C(F)(F)F)ccnc1C1CC1` . Could you help?
100

Hello, I am looking for reported herbicidal effect POAAN with Poa annua for `CCc1ccnc(Cl)c1C(=O)Nc1ncns1` . Could you help?
90

Hello, I am looking for reported herbicidal effect POAAN with Poa annua for `Cc1ccncc1C(=O)Nc1ncns1` . Could you help?
100

Hello, I am looking for reported herbicidal effect POAAN with Poa annua for `Cc1cc(F)ncc1C(=O)Nc1ncns1` . Could you help?
100

Hello, I am looking for reported herbicidal effect POAAN with Poa annua for `Cc1ccnc(Cl)c1C(=O)Nc1ncns1` . Could you help?
100
